system: SUIT-2 (Pancreatic Carcinoma); test: combination Emax (second highest fraction inhibited in the dose matrix, 72 h); higher = more inhibition; extreme values may be limits of the assay
Recorded measurements of combination Emax, one per entry
Write the value as a bare number.

Some compounds with known combination Emax results, for comparison:
CC(=O)c1c(C)c2cnc(Nc3ccc(N4CCNCC4)cn3)nc2n(C2CCCC2)c1=O [Palbociclib] + Cn1cnc2c(F)c(Nc3ccc(Br)cc3Cl)c(C(=O)NOCCO)cc21 [Selumetinib] (first compound max 10 µM, 7x7, partner max 10 µM) : 0.452
C[C@@H](c1ccc2nccn2c1)n1nnc2ncc(-c3cnn(C)c3)nc21 [Savolitinib] + CN(CC[C@H](CSC1=CC=CC=C1)NC2=C(C=C(C=C2)S(=O)(=O)NC(=O)C3=CC=C(C=C3)N4CCC(CC4)[C@H](C5=CC=CC=C5C6=CC=C(C=C6)Cl)O)S(=O)(=O)C(F)(F)F)CCO [AZD4320] (first compound max 1 µM, 7x7, partner max 1 µM) : 0.241

Continue with the compound presented below.
Q: Find the recorded combination Emax belonging to NC1(C(=O)N[C@@H](CCO)c2ccc(Cl)cc2)CCN(c2ncnc3[nH]ccc23)CC1 [Capivasertib] + CC(C)n1c(=O)n(C)c2cnc3cc(F)c(-c4ccc(OCCCN5CCCCC5)nc4)cc3c21 [AZD1390] (first compound max 10 µM, 7x7, partner max 0.3 µM) and report it.
Ans: 0.139

---

system: KARPAS-1106P (B-Cell Non-Hodgkin's Lymphoma); experiment: combination Emax (second highest fraction inhibited in the dose matrix, 72 h); higher = more inhibition; extreme values may be limits of the assay
quantity.measured: combination Emax
Please state the value as a number alone, without comment.

CC1(C)CCC(CN2CCN(c3ccc(C(=O)NS(=O)(=O)c4ccc(NCC5CCOCC5)c([N+](=O)[O-])c4)c(Oc4cnc5[nH]ccc5c4)c3)CC2)=C(c2ccc(Cl)cc2)C1 [Venetoclax] + Cc1cc2ncnn2cc1Nc1ncc2c(n1)n(C1CCOCC1)c(=O)n2C [AZD7648] (first compound max 1 µM, 7x7, partner max 10 µM) : 0.458

Kindly consider the entry below.
Q: Sample CC(=O)c1c(C)c2cnc(Nc3ccc(N4CCNCC4)cn3)nc2n(C2CCCC2)c1=O [Palbociclib] + Cc1c2c(nn1C)CSCc1cc(n(C)n1)CSc1cc(c3ccccc3c1)OCCCc1c(C(=O)O)n(C)c3c-2c(Cl)ccc13 [AZD5991] (first compound max 10 µM, 7x7, partner max 1 µM) — what was its combination Emax?
Ans: 0.897

---

The entries below come with measured combination Emax values attached.
tested on: DB (B-Cell Non-Hodgkin's Lymphoma); experiment: combination Emax (second highest fraction inhibited in the dose matrix, 72 h); higher = more inhibition; extreme values may be limits of the assay
Please reply with the value in numeric form only.

Guide cases for combination Emax, answers given:
CN(CCO)CC[C@H](CSc1ccccc1)Nc1ccc(S(=O)(=O)NC(=O)c2ccc(N3CCC([C@@H](O)c4ccccc4-c4ccc(Cl)cc4)CC3)cc2)cc1S(=O)(=O)C(F)(F)F [AZD4320] + CN(C)CCCOc1ccc(-c2ccc3ncc4c(c3c2)n(C2CCOCC2)c(=O)n4C)cn1 [AZD0156] (first compound max 1 µM, 7x7, partner max 1 µM) : 0.933
Cc1cc2ncnn2cc1Nc1ncc2c(n1)n(C1CCOCC1)c(=O)n2C [AZD7648] + CCN(CCO)CCCOc1ccc2c(Nc3cc(CC(=O)Nc4cccc(F)c4)[nH]n3)ncnc2c1 [AZD2811] (first compound max 10 µM, 7x7, partner max 1 µM) : 0.601

Turning now to a further record.
Q: Would you mind telling me what combination Emax value was observed for COc1cc2c(cc1OCCCCCOc1cc3c(cc1OC)C(=O)N1C=C(C)C[C@H]1C=N3)N=C[C@@H]1CC(C)=CN1C2=O [SG3199] + O=C(c1cc(Cc2n[nH]c(=O)c3ccccc23)ccc1F)N1CCN(C(=O)C2CC2)CC1 [Olaparib] (first compound max 0.001 µM, 7x7, partner max 10 µM) ?
Ans: 0.347

The reported measurements were obtained from the supplement of paper PMC11061612.
